EC50 listing for selected compounds.
molecular target: 5-HT2C receptor (Homo sapiens, UniProt P28335); experiment: Functional activity, FLIPR calcium assay in CHO cells expressing human 5-HT2C; conditions: CHO cells, FLIPR, Fluo-3-AM; read-out: h5-HT2C EC50
Sequence (P28335 33-458): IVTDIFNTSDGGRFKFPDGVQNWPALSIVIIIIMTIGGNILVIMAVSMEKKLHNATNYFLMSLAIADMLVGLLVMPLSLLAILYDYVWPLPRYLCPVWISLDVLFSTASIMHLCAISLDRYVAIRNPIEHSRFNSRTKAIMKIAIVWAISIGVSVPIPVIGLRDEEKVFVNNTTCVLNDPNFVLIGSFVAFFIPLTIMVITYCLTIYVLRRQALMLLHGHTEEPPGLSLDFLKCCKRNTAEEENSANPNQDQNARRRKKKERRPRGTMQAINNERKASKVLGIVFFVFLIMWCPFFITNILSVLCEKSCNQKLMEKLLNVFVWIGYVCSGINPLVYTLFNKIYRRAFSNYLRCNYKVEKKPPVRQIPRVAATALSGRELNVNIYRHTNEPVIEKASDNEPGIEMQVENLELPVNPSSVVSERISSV
Respond numerically; units are nM and should not be typed.

C[C@@H]1CNC[C@H]2Cc3cc4c(nc3N21)C(C)(C)OC4 ... 8.4

Next item in the queue.
So what's the measured EC50 for this one? C[C@@H]1CNC[C@H]2Cc3cc4c(nc3N21)[C@H](C1CC1)OC4
12.4

====

molecular target: 5-HT2A receptor (Homo sapiens, UniProt P28223); experiment: Functional activity, FLIPR calcium assay in CHO cells expressing human 5-HT2A; assay type: cell-based; parameters: expressed in transfected cells; host or cells: CHO cells; conditions: CHO cells, FLIPR, Fluo-3-AM; read-out: h5-HT2A EC50
Sequence (P28223 whole entry): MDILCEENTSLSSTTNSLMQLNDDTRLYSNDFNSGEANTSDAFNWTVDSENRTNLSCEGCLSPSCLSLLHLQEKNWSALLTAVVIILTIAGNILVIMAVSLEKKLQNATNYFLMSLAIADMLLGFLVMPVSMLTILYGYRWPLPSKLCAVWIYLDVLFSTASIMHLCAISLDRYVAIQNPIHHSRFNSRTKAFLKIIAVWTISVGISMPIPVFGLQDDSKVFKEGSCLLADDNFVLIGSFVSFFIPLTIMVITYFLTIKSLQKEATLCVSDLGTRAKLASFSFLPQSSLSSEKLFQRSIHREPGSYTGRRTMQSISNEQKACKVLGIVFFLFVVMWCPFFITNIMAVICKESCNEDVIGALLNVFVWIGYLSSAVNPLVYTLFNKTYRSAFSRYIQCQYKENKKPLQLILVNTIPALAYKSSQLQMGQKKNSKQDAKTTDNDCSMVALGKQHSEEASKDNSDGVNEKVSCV
Measurement Type: pEC50
pEC50 here is simply -log10 of the concentration when that concentration is written in mol/L.

What does the record list as pEC50 for C[C@@H]1CNC[C@H]2Cc3cc4c(nc3N21)[C@H](C1CC1)OC4 ?
6.27

====

biological target: 5-HT2C receptor (Homo sapiens); assay: Binding to 5-HT2C receptor, [3H]-5-HT radioligand, Method (a); settings: 5-HT2C receptors in a CHO cell line, read-out: Method (a) Ki (2C)
Measurement Type: Ki (nM)
Please give a number only; it is taken to be in nM.

Example results:
C[C@@H]1CNC[C@H]2Cc3cc4c(nc3N21)CSC4 ... 5.3
C[C@@H]1CNC[C@H]2Cc3cc4c(nc3N21)C(C)(C)OC4 ... 5.5

Any idea what its Ki is? The compound is C[C@@H]1CNC[C@H]2Cc3cc4c(nc3N21)[C@H](C1CC1)OC4
23.4

====

molecular target: human 5-HT2B receptors (Homo sapiens); assay: Binding to 5-HT2B receptor, [3H]-5-HT radioligand, Method (b); details: human 5-HT2B receptors in a CHO cell line, read-out: Method (b) Ki (2B)
Sequence (P41595 whole entry): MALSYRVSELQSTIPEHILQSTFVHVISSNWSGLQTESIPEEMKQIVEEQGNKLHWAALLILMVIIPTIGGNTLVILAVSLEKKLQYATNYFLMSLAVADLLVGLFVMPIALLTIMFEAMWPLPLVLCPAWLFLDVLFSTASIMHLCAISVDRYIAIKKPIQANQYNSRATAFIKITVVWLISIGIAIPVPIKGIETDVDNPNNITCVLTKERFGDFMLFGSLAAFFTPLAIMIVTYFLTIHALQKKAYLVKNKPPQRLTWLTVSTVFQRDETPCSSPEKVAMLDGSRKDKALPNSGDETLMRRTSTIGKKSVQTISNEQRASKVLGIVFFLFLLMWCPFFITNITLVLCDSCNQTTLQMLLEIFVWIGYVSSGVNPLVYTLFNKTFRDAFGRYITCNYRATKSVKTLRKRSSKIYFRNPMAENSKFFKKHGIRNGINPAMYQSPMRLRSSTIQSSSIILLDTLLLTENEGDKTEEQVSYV
Quick reference for Ki among some compounds
A number alone suffices; assume nM.

C[C@@H]1CNC[C@H]2Cc3cc4c(nc3N21)CSC4 ... 21.1
C[C@@H]1CNC[C@H]2Cc3cc4c(nc3N21)C(C)(C)OC4 ... 26.3

// next item, Ki requested
Entry C[C@@H]1CNC[C@H]2Cc3cc4c(nc3N21)[C@H](C1CC1)OC4 , system human 5-HT2B receptors (Homo sapiens): what Ki was measured?
760

Data provenance is patent US7547699B2.
